Biological target: T1, recombinant LILRA1 ECD (human, UniProt O75019 17-461)
T1 construct: whole canonical entry named; also called LILA1
T1 sequence (O75019 17-461 limits assumed): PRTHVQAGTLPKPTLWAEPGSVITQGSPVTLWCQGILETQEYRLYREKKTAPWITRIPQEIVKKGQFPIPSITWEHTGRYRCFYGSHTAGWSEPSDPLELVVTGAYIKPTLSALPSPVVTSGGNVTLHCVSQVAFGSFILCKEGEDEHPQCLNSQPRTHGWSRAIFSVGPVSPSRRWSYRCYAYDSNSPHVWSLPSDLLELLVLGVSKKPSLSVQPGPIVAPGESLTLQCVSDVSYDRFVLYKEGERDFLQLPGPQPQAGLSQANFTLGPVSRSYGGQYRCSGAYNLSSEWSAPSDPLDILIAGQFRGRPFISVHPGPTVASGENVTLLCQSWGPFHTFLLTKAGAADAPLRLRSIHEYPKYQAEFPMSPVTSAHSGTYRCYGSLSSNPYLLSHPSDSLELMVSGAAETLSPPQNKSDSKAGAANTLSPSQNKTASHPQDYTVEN
Assay: BLI, IgG on AHC sensor, ECD in solution
Quantity measured: pKd
Give bare numbers, as −log10 of the molar value.

A-041 (antibody, V domains shown, tested as IgG) VH: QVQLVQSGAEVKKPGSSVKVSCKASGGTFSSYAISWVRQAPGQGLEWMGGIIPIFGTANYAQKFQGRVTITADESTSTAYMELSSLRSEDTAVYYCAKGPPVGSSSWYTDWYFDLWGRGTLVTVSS VL: SYELTQPPSVSVSPGQTASITCSGDKLGDKYASWYQQKPGQSPVLVIYQDSKRPSGIPERFSGSNSGNTATLTISGTQAEDEADYYCSSYGSGLTVVFGGGTKLTVL : 6.62

// next entry
Using the record for A-014 (antibody, V domains shown, tested as IgG) VH: QVQLVQSGAEVKKPGSSVKVSCKASGGTFSSYAINWVRQAPGQGLEWMGGIIPIFHTSNYAQKFQGRVTITADESTSTAYMELSSLRSEDTAVYYCAKDLGTYSSGWPYYYGMDVWGQGTTVTVSS VL: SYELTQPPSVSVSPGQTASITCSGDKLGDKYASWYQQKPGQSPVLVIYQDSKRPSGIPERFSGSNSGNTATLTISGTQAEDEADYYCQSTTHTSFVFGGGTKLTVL , report its pKd. 6.33
